Target: T1, native cynomolgus monkey CD30L on activated T cells (cynomolgus monkey, UniProt A0A7N9CVX7 1-234)
T1 construct: whole, on cells; also called cynomologous CD30L
T1 sequence: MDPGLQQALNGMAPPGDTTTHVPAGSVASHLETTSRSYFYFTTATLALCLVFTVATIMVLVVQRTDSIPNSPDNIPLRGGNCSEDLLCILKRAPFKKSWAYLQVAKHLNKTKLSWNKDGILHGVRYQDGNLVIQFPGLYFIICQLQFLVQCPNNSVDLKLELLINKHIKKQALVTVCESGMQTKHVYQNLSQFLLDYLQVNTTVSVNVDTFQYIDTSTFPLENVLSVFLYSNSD
Assay: FACS, native cyno CD30L on activated cynomolgus T cells
measured.attribute: EC50
Remember to quote the unit after the number.

# binder Antibody B (antibody, V domains shown, also called mAb B) VH: QVQLQESGPGLVKPSETLSLTCTVSGGSISSYYWTWIRQPAGKGLEWIGRIYTSGITNYNPSLKSRVTMSVDTSKNQFSLKLSSVTAADTAVYYCARERVVGASRYYYYGVDVWGQGTTVTVSS VL: QSALTQPASVSGSPGQSITISCTGTSSDVGLYNYVSWYQQHPDKAPKLMIFEVNNRPSGVSNRFSGSNSGNTASLTISGLQAEDEADYYCSSYTSSSTWVFGGGTKLTVL ; its EC50 = 4 nM

# binder Antibody E (antibody, V domains shown, also called mAb E) VH: QVQLQESGPRLVKPSETLSLTCTVSGGSITNNYWSWIRQPAGKGLEWIGRVYSSGLTNYKPSLKSRVTMSVDTSKNQFSLRLNSVTAADTAVYYCARERATVTTRYHYDGMDVWGQGTSVTVSS VL: QSALTQPASVSGSPGQSITISCTGSSSDIGTYNYVSWYQQYPGKAPELMIYEVNNRPSGVSDRFSGSTSGNTASLTISGLQANDEADYYCSSYSSSSTWVFGGGTKLTVL ; its EC50 = 2.7 nM

# binder Antibody C (antibody, V domains shown, also called mAb C) VH: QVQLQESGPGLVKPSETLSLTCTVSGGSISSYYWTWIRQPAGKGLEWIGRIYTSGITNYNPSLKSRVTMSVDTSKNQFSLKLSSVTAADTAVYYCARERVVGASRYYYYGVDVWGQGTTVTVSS VL: QSALTQPASVSGSPGQSITISCTGTSSDIGLYDYVSWYQQHPDRAPKLIIFEVNNRPSGVSYRFSGSNSGNTASLTISGLQAEDEADYYCSSYTSSSTWVFGGGTKLTVL ; its EC50 = 1 nM
